# experimental protocol: self-splicing fitness, log relative to wild type (ln ratio); higher = more splicing; Tetrahymena group I intron in knt gene, E. coli kanamycin selection, DiMSum; sequences stand for … in CUCUCU…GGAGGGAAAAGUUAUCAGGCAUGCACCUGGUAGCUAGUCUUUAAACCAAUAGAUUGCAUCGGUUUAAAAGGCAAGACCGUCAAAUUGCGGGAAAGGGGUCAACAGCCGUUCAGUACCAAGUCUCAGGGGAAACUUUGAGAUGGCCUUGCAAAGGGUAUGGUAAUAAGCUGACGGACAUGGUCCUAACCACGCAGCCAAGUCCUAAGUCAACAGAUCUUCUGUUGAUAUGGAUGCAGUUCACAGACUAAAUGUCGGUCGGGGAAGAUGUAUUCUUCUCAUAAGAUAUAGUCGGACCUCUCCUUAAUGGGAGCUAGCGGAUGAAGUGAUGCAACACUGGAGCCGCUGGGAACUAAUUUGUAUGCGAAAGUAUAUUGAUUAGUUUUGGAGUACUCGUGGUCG;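 note: selection with 25 µg/mL kanamycin versus none on LB agar overnight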
# cond: 30 °C
measurement type: self-splicing fitness (ln)

- residue string: "GGGAAGCAAUAUUACGUGUG"
  value measured: -1.15
- residue string: "GACCAGCAAUAUUACGUUUU"
  value measured: -0.363
- residue string: "AUUUAGCAAUAUUACGAAUG"
  value measured: -2.39
- residue string: "AUGCAGCAAUAUUACGGUUA"
  value measured: -1.11
- residue string: "ACAAAGCAAUAUUACGUGGG"
  value measured: -3.35
- residue string: "AUGUAGCAAUAUUACGGUUG"
  value measured: -3.62
- residue string: "CAGAAGCAAUAUUACGAAGC"
  value measured: -2.87
- residue string: "CCGUAGCAAUAUUACGGGGC"
  value measured: -2.28

----------
# experimental protocol: self-splicing fitness, log relative to wild type (ln ratio); higher = more splicing; Tetrahymena group I intron in knt gene, E. coli kanamycin selection, DiMSum; sequences stand for … in CUCUCU…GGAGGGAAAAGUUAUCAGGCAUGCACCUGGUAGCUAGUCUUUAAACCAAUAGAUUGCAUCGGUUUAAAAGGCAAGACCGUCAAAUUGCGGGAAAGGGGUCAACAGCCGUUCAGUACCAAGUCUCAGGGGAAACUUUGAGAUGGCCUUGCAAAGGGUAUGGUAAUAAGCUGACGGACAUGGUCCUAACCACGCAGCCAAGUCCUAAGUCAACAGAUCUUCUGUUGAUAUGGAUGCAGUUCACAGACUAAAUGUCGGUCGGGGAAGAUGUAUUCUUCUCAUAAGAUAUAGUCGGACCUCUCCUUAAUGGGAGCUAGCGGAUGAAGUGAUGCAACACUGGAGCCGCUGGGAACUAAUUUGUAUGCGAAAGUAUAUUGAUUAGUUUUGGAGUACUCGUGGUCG
# cond: 30 °C
Consider the reported self-splicing fitness (ln) of an entry and match it to a band in 1 (below -3), 2 (-3 to below -1), 3 (-1 or more)

- residue string: "UGUCAGCAAUAUUACGCGAG"
  class label: 2
- residue string: "CCCAAGCAAUAUUACGCAGU"
  class label: 1
- residue string: "AACUAGCAAUAUUACGACCG"
  class label: 3
- residue string: "CACAAGCAAUAUUACGGGUA"
  class label: 2
- residue string: "AACUAGCAAUAUUACGCCGU"
  class label: 2
- residue string: "UUCAAGCAAUAUUACGAAUU"
  class label: 1
- residue string: "AGCAAGCAAUAUUACGAACG"
  class label: 3
- residue string: "GAUAAGCAAUAUUACGGAUC"
  class label: 2
- residue string: "AACAAGCAAUAUUACGGUUG"
  class label: 2
- residue string: "UCAAAGCAAUAUUACGGGUG"
  class label: 3
- residue string: "UCAAAGCAAUAUUACGUUAG"
  class label: 2
- residue string: "GCUAAGCAAUAUUACGGUCA"
  class label: 3
- residue string: "GGUCAGCAAUAUUACGGUGA"
  class label: 3
- residue string: "UUCAAGCAAUAUUACGCGUG"
  class label: 1
- residue string: "AUUGAGCAAUAUUACGAGAU"
  class label: 1

----------
Below, each entry is listed alongside its reported self-splicing fitness (ln).
# experimental protocol: self-splicing fitness, log relative to wild type (ln ratio); higher = more splicing; Tetrahymena group I intron in knt gene, E. coli kanamycin selection, DiMSum; sequences stand for … in CUCUCU…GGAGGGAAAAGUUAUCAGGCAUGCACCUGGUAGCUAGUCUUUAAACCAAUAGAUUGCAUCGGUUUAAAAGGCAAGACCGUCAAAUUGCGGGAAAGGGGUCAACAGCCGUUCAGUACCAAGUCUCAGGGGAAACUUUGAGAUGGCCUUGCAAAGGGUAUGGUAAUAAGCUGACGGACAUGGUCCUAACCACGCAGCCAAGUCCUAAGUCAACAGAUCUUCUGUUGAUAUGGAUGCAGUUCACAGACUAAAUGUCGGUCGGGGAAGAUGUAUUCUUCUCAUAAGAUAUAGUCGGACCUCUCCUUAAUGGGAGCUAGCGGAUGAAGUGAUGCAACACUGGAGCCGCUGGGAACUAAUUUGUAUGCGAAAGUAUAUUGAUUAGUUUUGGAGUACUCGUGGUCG
# cond: 30 °C

- residue string: "CUCUAGCAAUAUUACGUUUC"
  self-splicing fitness (ln): -5.02
- residue string: "CAACAGCAAUAUUACGGCCG"
  self-splicing fitness (ln): 0.255
- residue string: "GUACAGCAAUAUUACGACGC"
  self-splicing fitness (ln): -0.428
- residue string: "CCCCAGCAAUAUUACGUGUG"
  self-splicing fitness (ln): -2.66
- residue string: "CCGGAGCAAUAUUACGAAGA"
  self-splicing fitness (ln): -3.63
- residue string: "UGUGAGCAAUAUUACGGUUC"
  self-splicing fitness (ln): -2.76
- residue string: "ACGCAGCAAUAUUACGAAAC"
  self-splicing fitness (ln): -3.07
- residue string: "AAACAGCAAUAUUACGAACC"
  self-splicing fitness (ln): -2.56
- residue string: "AUGAAGCAAUAUUACGUUCG"
  self-splicing fitness (ln): 0.356
- residue string: "UGCGAGCAAUAUUACGUGAC"
  self-splicing fitness (ln): -3.73
- residue string: "GUCGAGCAAUAUUACGGCCA"
  self-splicing fitness (ln): -1.28
- residue string: "AUACAGCAAUAUUACGGCGG"
  self-splicing fitness (ln): -1.19
- residue string: "ACAAAGCAAUAUUACGCGGC"
  self-splicing fitness (ln): -2.91
- residue string: "UAUUAGCAAUAUUACGAUAA"
  self-splicing fitness (ln): -1.07
- residue string: "ACGUAGCAAUAUUACGUGAC"
  self-splicing fitness (ln): -2.84
- residue string: "GUAUAGCAAUAUUACGCAUA"
  self-splicing fitness (ln): -2.3
- residue string: "UGCAAGCAAUAUUACGCUGC"
  self-splicing fitness (ln): -3.62
- residue string: "UGGAAGCAAUAUUACGGACG"
  self-splicing fitness (ln): -1.13
- residue string: "CAUAAGCAAUAUUACGAUAU"
  self-splicing fitness (ln): -3.41
- residue string: "AUUAAGCAAUAUUACGGGUU"
  self-splicing fitness (ln): -2.34
- residue string: "AGGAAGCAAUAUUACGCUCG"
  self-splicing fitness (ln): -0.643
- residue string: "GUAAAGCAAUAUUACGAGUA"
  self-splicing fitness (ln): -1.11
- residue string: "UCCUAGCAAUAUUACGGGGC"
  self-splicing fitness (ln): -3.1
- residue string: "GUGGAGCAAUAUUACGCAAU"
  self-splicing fitness (ln): -1.83
- residue string: "UGCCAGCAAUAUUACGUUGG"
  self-splicing fitness (ln): -3.91
- residue string: "CUCUAGCAAUAUUACGCUUA"
  self-splicing fitness (ln): -4
- residue string: "CCAAAGCAAUAUUACGCCUG"
  self-splicing fitness (ln): -0.536
- residue string: "UCGGAGCAAUAUUACGUUAC"
  self-splicing fitness (ln): -1.87
- residue string: "CUUGAGCAAUAUUACGUAUC"
  self-splicing fitness (ln): -3.35
- residue string: "UCCAAGCAAUAUUACGCGUG"
  self-splicing fitness (ln): -4.16
- residue string: "AGUUAGCAAUAUUACGAUCU"
  self-splicing fitness (ln): -0.0546
- residue string: "ACCGAGCAAUAUUACGAGCA"
  self-splicing fitness (ln): -2.63
- residue string: "UCCUAGCAAUAUUACGUUAU"
  self-splicing fitness (ln): -2.99
- residue string: "GUCUAGCAAUAUUACGUGGG"
  self-splicing fitness (ln): -2.01

----------
# experimental protocol: self-splicing fitness, log relative to wild type (ln ratio); higher = more splicing; Tetrahymena group I intron in knt gene, E. coli kanamycin selection, DiMSum; sequences stand for … in CUCUCU…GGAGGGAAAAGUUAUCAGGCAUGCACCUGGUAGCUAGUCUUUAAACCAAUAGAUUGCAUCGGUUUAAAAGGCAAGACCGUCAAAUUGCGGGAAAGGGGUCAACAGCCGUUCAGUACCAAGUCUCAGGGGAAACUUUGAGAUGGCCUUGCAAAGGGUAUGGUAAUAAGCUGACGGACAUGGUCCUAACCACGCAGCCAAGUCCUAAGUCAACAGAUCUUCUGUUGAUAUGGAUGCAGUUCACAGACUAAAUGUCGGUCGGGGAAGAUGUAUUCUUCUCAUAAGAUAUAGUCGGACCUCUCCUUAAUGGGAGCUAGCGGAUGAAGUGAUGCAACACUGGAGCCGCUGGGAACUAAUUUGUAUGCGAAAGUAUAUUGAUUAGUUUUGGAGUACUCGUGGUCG
# cond: 30 °C

- residue string: "ACUCAGCAAUAUUACGGAAG"
  self-splicing fitness (ln): -0.707
- residue string: "AACGAGCAAUAUUACGGCGG"
  self-splicing fitness (ln): -2.67
- residue string: "UUGAAGCAAUAUUACGCCCU"
  self-splicing fitness (ln): -0.0294
- residue string: "AGAAAGCAAUAUUACGGGUC"
  self-splicing fitness (ln): -3.05
- residue string: "GAACAGCAAUAUUACGUAGC"
  self-splicing fitness (ln): -0.75
- residue string: "AACUAGCAAUAUUACGCCCG"
  self-splicing fitness (ln): -1.11
- residue string: "AAACAGCAAUAUUACGAGCU"
  self-splicing fitness (ln): -1.25
- residue string: "GGCCAGCAAUAUUACGACCU"
  self-splicing fitness (ln): -1.96
- residue string: "CCGCAGCAAUAUUACGCGCU"
  self-splicing fitness (ln): -3.09
- residue string: "UCUAAGCAAUAUUACGUAGA"
  self-splicing fitness (ln): -1.2
- residue string: "AAGUAGCAAUAUUACGGUCC"
  self-splicing fitness (ln): -1.32
- residue string: "CAAAAGCAAUAUUACGCCGU"
  self-splicing fitness (ln): -2.08
- residue string: "CCUCAGCAAUAUUACGUCUU"
  self-splicing fitness (ln): -3.91
- residue string: "CGACAGCAAUAUUACGGCCA"
  self-splicing fitness (ln): -1.16
- residue string: "CUAAAGCAAUAUUACGGGUG"
  self-splicing fitness (ln): 0.107
- residue string: "AUCAAGCAAUAUUACGGGUA"
  self-splicing fitness (ln): -2.04
- residue string: "CACCAGCAAUAUUACGAGUC"
  self-splicing fitness (ln): -4.09
- residue string: "AUGAAGCAAUAUUACGAUAC"
  self-splicing fitness (ln): -0.832
- residue string: "CAUUAGCAAUAUUACGCAUU"
  self-splicing fitness (ln): -3.32
- residue string: "CCGUAGCAAUAUUACGCUUG"
  self-splicing fitness (ln): -1.48
- residue string: "CACCAGCAAUAUUACGCAAC"
  self-splicing fitness (ln): -2.68
- residue string: "AGGGAGCAAUAUUACGAGUG"
  self-splicing fitness (ln): -3.39
- residue string: "UUGGAGCAAUAUUACGAUGG"
  self-splicing fitness (ln): -1.53
- residue string: "CUAUAGCAAUAUUACGCUAU"
  self-splicing fitness (ln): -2.77
- residue string: "GUCGAGCAAUAUUACGUUGA"
  self-splicing fitness (ln): -2.98
- residue string: "UCUGAGCAAUAUUACGUGUC"
  self-splicing fitness (ln): -4.14
- residue string: "ACAUAGCAAUAUUACGAGCU"
  self-splicing fitness (ln): -1.32
- residue string: "UACAAGCAAUAUUACGAAUG"
  self-splicing fitness (ln): -0.773
- residue string: "GUGAAGCAAUAUUACGUUCA"
  self-splicing fitness (ln): -1.45
- residue string: "CACUAGCAAUAUUACGACGC"
  self-splicing fitness (ln): -2.52
- residue string: "ACUGAGCAAUAUUACGGAUA"
  self-splicing fitness (ln): -3.08
- residue string: "GCGCAGCAAUAUUACGCCAG"
  self-splicing fitness (ln): -2.22
- residue string: "AUUCAGCAAUAUUACGGACC"
  self-splicing fitness (ln): -0.601
- residue string: "UGUCAGCAAUAUUACGACCU"
  self-splicing fitness (ln): -0.114
